Biological target: 17-beta-hydroxysteroid dehydrogenase type 1 (Homo sapiens) (UniProt P14061)
Test: Compound was tested for the inhibition of 17-beta-hydroxysteroid dehydrogenase type 1(17-beta-HSD type 1) at 1 uM concentration
Record form. Attribute: inhibition. Fill in for each entry.
Give the value in % but do not write % after it.

### Prompt Suppose we examine the molecule C[C@]12CC[C@@H]3c4ccc(O)cc4CC[C@H]3[C@@H]1C[C@@H](CCCSC#N)[C@@H]2O ; what inhibition value has been reported?
### Response 82

### Prompt Suppose we examine the molecule C[C@]12CC[C@@H]3c4ccc(O)cc4CC[C@H]3[C@@H]1C[C@@H](CCCF)[C@@H]2O ; what inhibition value has been reported?
### Response 49

### Prompt Suppose we examine the molecule C=CC[C@@H]1C[C@H]2[C@@H]3CCc4cc(O)ccc4[C@H]3CC[C@]2(C)[C@H]1O ; what inhibition value has been reported?
### Response 26

### Prompt Suppose we examine the molecule CCC[C@@H]1C[C@H]2[C@@H]3CCc4cc(O)ccc4[C@H]3CC[C@]2(C)[C@H]1O ; what inhibition value has been reported?
### Response 29

* * *

Target: 17-beta-hydroxysteroid dehydrogenase type 1 (Homo sapiens) (UniProt P14061)
Test: Compound was tested for the inhibition of 17-beta-hydroxysteroid dehydrogenase type 1(17-beta-HSD type 1) at 1 uM concentration
measured_endpoint: inhibition (%)
Give the value in % but do not write % after it.

### Prompt Suppose we examine the molecule C[C@]12CC[C@@H]3c4ccc(O)cc4CC[C@H]3[C@@H]1C[C@@H](CCCO)[C@@H]2O ; what inhibition value has been reported?
### Response 17

### Prompt Suppose we examine the molecule C[C@]12CC[C@@H]3c4ccc(O)cc4CC[C@H]3[C@@H]1C[C@@H](CCCBr)[C@@H]2O ; what inhibition value has been reported?
### Response 70

### Prompt Suppose we examine the molecule C[C@]12CC[C@@H]3c4ccc(O)cc4CC[C@H]3[C@@H]1C[C@@H](CCCCl)[C@@H]2O ; what inhibition value has been reported?
### Response 88

### Prompt Suppose we examine the molecule C[C@]12CC[C@@H]3c4ccc(O)cc4CC[C@H]3[C@@H]1C[C@@H](CCCI)[C@@H]2O ; what inhibition value has been reported?
### Response 68

* * *

Target: 17-beta-hydroxysteroid dehydrogenase type 1 (Homo sapiens) (UniProt P14061)
Sequence (whole entry): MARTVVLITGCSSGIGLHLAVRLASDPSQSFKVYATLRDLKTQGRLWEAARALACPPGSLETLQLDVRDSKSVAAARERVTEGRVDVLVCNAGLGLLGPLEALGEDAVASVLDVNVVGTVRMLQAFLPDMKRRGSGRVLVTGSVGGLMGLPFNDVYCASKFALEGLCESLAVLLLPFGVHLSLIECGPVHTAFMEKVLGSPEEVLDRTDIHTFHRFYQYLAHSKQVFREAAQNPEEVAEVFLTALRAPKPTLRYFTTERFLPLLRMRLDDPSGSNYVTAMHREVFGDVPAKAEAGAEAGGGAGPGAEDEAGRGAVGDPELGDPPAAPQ
Assay: Compound was tested for the inhibition of 17-beta-hydroxysteroid dehydrogenase type 1(17-beta-HSD type 1) at 10 uM concentration
measured_endpoint: inhibition (%)
Give the value in % but do not write % after it.

### Prompt Suppose we examine the compound C[C@]12CC[C@@H]3c4ccc(O)cc4CC[C@H]3[C@@H]1C[C@@H](CCCI)[C@@H]2O ; what inhibition value has been reported?
### Response 92

### Prompt Suppose we examine the compound C[C@]12CC[C@@H]3c4ccc(O)cc4CC[C@H]3[C@@H]1C[C@@H](CCCCl)[C@@H]2O ; what inhibition value has been reported?
### Response 92

### Prompt Suppose we examine the compound C[C@]12CC[C@@H]3c4ccc(O)cc4CC[C@H]3[C@@H]1C[C@@H](CCCF)[C@@H]2O ; what inhibition value has been reported?
### Response 81

### Prompt Suppose we examine the compound C=CC[C@@H]1C[C@H]2[C@@H]3CCc4cc(O)ccc4[C@H]3CC[C@]2(C)[C@H]1O ; what inhibition value has been reported?
### Response 63

### Prompt Suppose we examine the compound C[C@]12CC[C@@H]3c4ccc(O)cc4CC[C@H]3[C@@H]1C[C@@H](CCCBr)[C@@H]2O ; what inhibition value has been reported?
### Response 94
